FYI, the data here is from paper PMC9049676.

test system: HL-7702; assay: MTT cytotoxicity assay, normal liver cell line HL-7702; format: cell-based, human; conditions: read-out: IC50 HL-7702, cells treated for 24 h
measurement_label: pIC50
Answers are plain numbers, as −log10 of the molar value.

For the compound N.N.[Cl][Pt][Cl] [Cisplatin] , what pIC50 is on record?
4.87
